From: paper PMC9578396

test system: Acinetobacter baumannii; experiment: Broth microdilution MIC (CLSI), Acinetobacter baumannii; type: cell-based; conditions: Acinetobacter baumannii, strain ACM1030, adeS (AdeABC overexpression)
Items are presented alongside their recorded MIC.
Give a bare numeral; the unit µg/mL is implied.

| compound | u | recordedNumber |
| --- | --- | --- |
| CC1=C[C@@H]2CN(C(=O)N2OS(=O)(=O)O)[C@@H]1C(N)=O [Durlobactam] | µg/mL | 64 |

Consider the record given below.
Query the reported MIC for Acinetobacter baumannii; item: C[C@@H](O)[C@H]1C(=O)N2C(C(=O)O)=C(S[C@@H]3CN[C@H](C(=O)N(C)C)C3)[C@H](C)[C@H]12 [Meropenem]
0.5

---

system: Acinetobacter baumannii; assay: Broth microdilution MIC (CLSI), Acinetobacter baumannii; assay type: cell-based; conditions: Acinetobacter baumannii, strain ACM1014, ΔadeABC
resultType: MIC

Some entries whose results are on file:
| smilesRepresentation | resultType | result |
| --- | --- | --- |
| NC(=O)[C@@H]1CC[C@@H]2CN1C(=O)N2OS(=O)(=O)O | MIC | > 256 mg/L |
| O=C(NNC(=O)[C@@H]1CC[C@@H]2CN1C(=O)N2OS(=O)(=O)O)[C@@H]1CCCNC1 | MIC | > 256 mg/L |

Proceed to the following item.
What does the data say about its MIC? Entry: `NCCONC(=O)[C@@H]1CC[C@@H]2CN1C(=O)N2OS(=O)(=O)O`
> 256 mg/L

---

tested on: Acinetobacter baumannii; test: Broth microdilution MIC (CLSI), Acinetobacter baumannii; type: cell-based; details: Acinetobacter baumannii, strain ACM1015, ΔadeIJK ΔadeABC
resultType: MIC

| smilesRepresentation | MIC |
| --- | --- |
| O=C(NNC(=O)[C@@H]1CC[C@@H]2CN1C(=O)N2OS(=O)(=O)O)[C@@H]1CCCNC1 | > 256 µg/mL |
| NCCONC(=O)[C@@H]1CC[C@@H]2CN1C(=O)N2OS(=O)(=O)O | > 256 µg/mL |

Consider the record given below.
Param item = `NC(=O)[C@@H]1CC[C@@H]2CN1C(=O)N2OS(=O)(=O)O` ; retrieve measured MIC.
> 256 µg/mL

---

test system: Klebsiella pneumoniae; assay: microbe, parasite or virus in culture; type: cell-based; settings: Klebsiella pneumoniae, KPM4239, TolQ::S28F
resultType: MIC

// below: answered compounds
| smilesRepresentation | testSystem | result |
| --- | --- | --- |
| CC1(C)S[C@@H]2[C@H](/N=C/N3CCCCCC3)C(=O)N2[C@H]1C(=O)O | Klebsiella pneumoniae | > 64 µg/mL |
| NC(=O)[C@@H]1CC[C@@H]2CN1C(=O)N2OS(=O)(=O)O | Klebsiella pneumoniae | > 64 µg/mL |

Entry `O=C(NNC(=O)[C@@H]1CC[C@@H]2CN1C(=O)N2OS(=O)(=O)O)[C@@H]1CCCNC1` : reported MIC = ?
> 64 µg/mL

---

tested on: Acinetobacter baumannii; assay: Broth microdilution MIC (CLSI), Acinetobacter baumannii; format: cell-based; conditions: Acinetobacter baumannii, strain ACM1013, ΔadeIJK
Each entry below lists one item and its recorded MIC value.

Example compounds with recorded MIC:
| smilesRepresentation | testSystem | MIC |
| --- | --- | --- |
| NC(=O)[C@@H]1CC[C@@H]2CN1C(=O)N2OS(=O)(=O)O | Acinetobacter baumannii | > 256 µg/mL |
| NCCONC(=O)[C@@H]1CC[C@@H]2CN1C(=O)N2OS(=O)(=O)O | Acinetobacter baumannii | > 256 µg/mL |

Here's the next entry for you.
If you can, please state the reported MIC value of `O=C(NNC(=O)[C@@H]1CC[C@@H]2CN1C(=O)N2OS(=O)(=O)O)[C@@H]1CCCNC1` .
> 256 µg/mL

---

Test system: Klebsiella pneumoniae
Assay: microbe, parasite or virus in culture
Assay type: cell-based
Conditions: Klebsiella pneumoniae, strain KPM1171, ramR ompK36_1171; read-out: MIC
Text: (i) Panels of engineered bacterial strains containing various combinations of porin and efflux mutations were used. The construction of all the strains used in the study is described in detail in references, [44], and [45]. (ii) KPC-producing clinical isolates and their derivatives that lost KPC plasmids were used also. These strains and their origins are described in the Table S2. (iii) Finally, KPC-producing clinical isolates enriched in strains with porin mutations were used. […]
resultType: MIC

Before answering, review these 2 worked examples.
| smilesRepresentation | MIC |
| --- | --- |
| O=C(NNC(=O)[C@@H]1CC[C@@H]2CN1C(=O)N2OS(=O)(=O)O)[C@@H]1CCCNC1 | > 64 µg/mL |
| NC(=O)[C@@H]1CC[C@@H]2CN1C(=O)N2OS(=O)(=O)O | > 256 µg/mL |

# next molecule below
Looking for the measured MIC of `NCCONC(=O)[C@@H]1CC[C@@H]2CN1C(=O)N2OS(=O)(=O)O` , can you help?
> 64 µg/mL
